Data provenance: the Immune Epitope Database (IEDB)

Reported pKd values for the following sequences.
assayed system: HLA-A*02:06
test summary: IEDB peptide-MHC binding, purified MHC/competitive/radioactivity; filed as Kd, often an IC50 or EC50 that approximates it; bounds were set here for any values at or beyond the usual limits of such assays
test context: source organism: Vaccinia virus WR
pKd: −log10 of the molar value.
readout kind: pKd

{"record sequence": "MQLKIDKLT", "readout kind": "pKd", "meas value": "≤ 4.22"}
{"record sequence": "VMDKNHAIFT", "readout kind": "pKd", "meas value": "≤ 4.16"}
{"record sequence": "AIDRQVSVKL", "readout kind": "pKd", "meas value": "≤ 4.49"}
{"record sequence": "DVSVSVGTGI", "readout kind": "pKd", "meas value": "≤ 4.66"}
{"record sequence": "IVSLCPTKKL", "readout kind": "pKd", "meas value": "≤ 4.55"}
{"record sequence": "ALLSCIRNA", "readout kind": "pKd", "meas value": 7.11}
{"record sequence": "IADIRDKYM", "readout kind": "pKd", "meas value": "≤ 4.24"}
{"record sequence": "GLIVILFIM", "readout kind": "pKd", "meas value": 5.28}
{"record sequence": "KVIKLVKSL", "readout kind": "pKd", "meas value": 6.59}

---

assayed system: HLA-A*33:01
test summary: IEDB peptide-MHC binding, purified MHC/competitive/radioactivity; filed as Kd, often an IC50 or EC50 that approximates it; bounds were set here for any values at or beyond the usual limits of such assays
test context: source organism: Vaccinia virus WR
pKd: −log10 of the molar value.
readout kind: pKd

{"record sequence": "RLGLVLDDYK", "readout kind": "pKd", "meas value": "≤ 4.15"}
{"record sequence": "SSLVKNVNK", "readout kind": "pKd", "meas value": "≤ 4.11"}
{"record sequence": "ETSPGEIKPK", "readout kind": "pKd", "meas value": "≤ 4.21"}
{"record sequence": "RVRRYQIAQY", "readout kind": "pKd", "meas value": "≤ 4.15"}
{"record sequence": "KASMLEKYK", "readout kind": "pKd", "meas value": "≤ 4.41"}
{"record sequence": "CAVHLIIYY", "readout kind": "pKd", "meas value": "≤ 4.68"}
